In this section we review reported protein stability index values for a set of variants.
B1: DLC1 (parent)
chain: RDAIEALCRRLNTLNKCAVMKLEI

- Variants of: B1
- EXPERIMENTAL_DETAILS: protein stability index of a GFP-peptide fusion (GPS, HEK-293T) (PSI 1-6); higher = more stable;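 further: lentivirally expressed fusions sorted by FACS into six bins by GFP to DsRed ratio, PSI derived from sequencing read proportions per bin multiplied by bin number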
- MEASUREMENT_CONDITIONS: c terminus: a fixed tail appended
MEASURED_METRIC: protein stability index

1) C8D 2
2) A3N 3.61
3) V19G 1.6
4) L14E 2.98
5) L22P 1.43
6) I24H 1.73
7) A3Y 2.37
8) I24A 1.18
9) T13R 2.35
10) A18F 4.02
11) A18V 3.7
12) A3E 1.48
13) A3G 2.33
14) N15E 1.44
15) K16N 2.96
16) C8N 2.35
17) C8G 3.13
18) L22H 1.44
19) L22C 2.69
20) K16M 2.58
21) A6S 3.05
22) D2H 1.94
23) C17D 3.14
24) A18I 3.66
25) R9L 1.63
26) M20N 1.88
27) R10P 2.71
